Hey, just so you know, these numbers are from patent US20240092761A1.

Hi there, I'd appreciate the recorded IC50 for every entry that follows.
Target Under Test: CDK4/Cyclin D1 (Homo sapiens (Human), UniProt P11802)
Sequence (P11802 whole entry): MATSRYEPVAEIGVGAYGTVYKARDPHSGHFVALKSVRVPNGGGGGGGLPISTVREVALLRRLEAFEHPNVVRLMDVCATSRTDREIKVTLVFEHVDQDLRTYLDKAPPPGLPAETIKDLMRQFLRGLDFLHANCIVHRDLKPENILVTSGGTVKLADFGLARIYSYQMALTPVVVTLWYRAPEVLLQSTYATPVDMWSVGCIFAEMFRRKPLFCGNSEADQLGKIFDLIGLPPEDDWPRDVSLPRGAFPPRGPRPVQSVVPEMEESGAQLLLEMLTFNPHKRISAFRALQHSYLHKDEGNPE
Sequence (P24385 whole entry partner): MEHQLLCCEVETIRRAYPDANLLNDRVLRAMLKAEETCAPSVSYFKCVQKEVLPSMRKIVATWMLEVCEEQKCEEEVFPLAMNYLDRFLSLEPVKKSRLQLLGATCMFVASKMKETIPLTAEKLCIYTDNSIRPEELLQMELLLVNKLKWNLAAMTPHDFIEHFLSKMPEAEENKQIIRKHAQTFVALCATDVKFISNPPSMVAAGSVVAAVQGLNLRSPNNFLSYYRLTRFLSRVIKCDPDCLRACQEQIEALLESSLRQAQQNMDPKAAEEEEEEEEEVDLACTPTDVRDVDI
Assay Protocol: CDK4/Cyclin D1 Mobility Shift Assay (MSA)
Assay type: biochemical
Measurement Parameters: 0.2 mM ATP, read-out: CDK4/ CyclinD1 MSA IC50

Field: IC50. Fill in for each record below.
1. CC(=O)N1CCC2(CCN(c3cccc4cnc(Nc5ccc6c(c5)CCN(C)C6)nc34)C2)C1 (centres unmarked)
2. CCN1CC2(C1)CN(c1ccc(Nc3ncc4cccc(N5CCC6(CCN(C(C)=O)C6)C5)c4n3)nc1)C2 (centres unmarked)
3. CS(=O)(=O)N1CCC(Nc2ncc3cccc(N4CCC5(C4)CS(=O)(=O)C5)c3n2)CC1

## Result
1. < 200 nM
2. < 200 nM
3. < 200 nM

Field: IC50. Fill in for each record below.
1. COCCN1CC2(CCN(c3cccc4cnc(Nc5ccc(N6CC7(COC7)C6)cn5)nc34)C2)C1
2. CN1CCC2(C1)CN(c1cccc3cnc(NC4CCN(S(C)(=O)=O)CC4)nc13)C2
3. CC(=O)N1CCC2(CCN(c3cc(C(F)F)cc4cnc(Nc5ccc(N6CCN(C)CC6)cc5)nc34)C2)C1 (centres unmarked)

## Result
1. 200 to 500 nM
2. 200 to 500 nM
3. < 200 nM

Field: IC50. Fill in for each record below.
1. CS(=O)(=O)N1CCC(Nc2ncc3cccc(N4CCN(C5COC5)CC4)c3n2)CC1
2. CS(=O)(=O)N1CCC(Nc2ncc3cccc(N4CCCC4)c3n2)CC1

## Result
500 to 2000 nM
< 200 nM
